Let's look at some compounds and their measured inhibition at 62.5 µg/mL.
test system: Pythium aphanidermatum; experiment: Antifungal activity against Pythium aphanidermatum assessed as growth inhibition at 62.5 ug/ml by poisoned food technique; assay type: functional
metric: inhibition at 62.5 µg/mL (%)

compound | unit-text | number
CCOC(=O)c1c(C)cc(O)c(C=O)c1O [ETHYL HEMATOMMATE] | % | 13.1
COc1cc(C)c(C(=O)O)c(O)c1C | % | 28.4
CC(=O)C1=C(O)C=C2Oc3c(C)c(O)c(C(C)=O)c(O)c3C2(C)C1=O (racemic) [(+/-)-ISOUSNIC ACID] | % | 46.1
COC(=O)c1c(C)cc(O)c(C)c1O | % | 22.3
Cc1cc(O)c(C=O)c2c1C(=O)Oc1c(CO)c(O)c3c(c1O2)C(O)OC3=O (stereo not given) | % | 11.1

----------
tested on: Globisporangium debaryanum; experiment: Antifungal activity against Pythium debaryanum assessed as growth inhibition at 62.5 ug/ml by poisoned food technique; type: functional
The threshold is inclusive: inhibition at 62.5 µg/mL of exactly 40% counts as Yes; values below receive No.

molecule | assay-target | cat
COC(=O)c1c(C)cc(O)c(C=O)c1O [METHYL HAEMATOMMATE] | Globisporangium debaryanum | No
COc1cc(C)c2c(=O)c3c(O)cc(OC)cc3oc2c1 | Globisporangium debaryanum | No
CCOC(=O)c1c(C)cc(O)cc1O | Globisporangium debaryanum | No
CCOC(=O)c1c(C)cc(O)c(C=O)c1O [ETHYL HEMATOMMATE] | Globisporangium debaryanum | No
Cc1cc(O)c(C=O)c2c1C(=O)Oc1c(CO)c(O)c3c(c1O2)C(O)OC3=O (stereo unspecified) | Globisporangium debaryanum | No
COc1cc(C)c(C(=O)Oc2cc(C)c(C(=O)O)c(O)c2C)c(O)c1C=O | Globisporangium debaryanum | No
COc1cc(C)c(C(=O)O)c(O)c1C | Globisporangium debaryanum | No
COC(=O)c1c(C)cc(O)c(C)c1O | Globisporangium debaryanum | Yes
CC(=O)C1=C(O)C=C2Oc3c(C)c(O)c(C(C)=O)c(O)c3C2(C)C1=O (racemic) [(+/-)-ISOUSNIC ACID] | Globisporangium debaryanum | No
C=C1C(=O)OC(CCCCCCCCCCCCC)C1C(=O)O (racemic) [(+/-)-Protolichesterinic acid] | Globisporangium debaryanum | Yes
COC(=O)c1c(C)cc(OC(=O)c2c(C)cc(O)c(C=O)c2O)c(C)c1O | Globisporangium debaryanum | Yes

----------
test system: Macrophomina phaseolina; experiment: Antifungal activity against Rhizoctonia bataticola assessed as growth inhibition at 62.5 ug/ml by poisoned food technique; type: functional
The threshold is inclusive: inhibition at 62.5 µg/mL of exactly 30% counts as rule met; values below receive rule not met.

compound | cat
CCOC(=O)c1c(C)cc(O)cc1O | rule not met
COC(=O)c1c(C)cc(OC(=O)c2c(C)cc(O)c(C=O)c2O)c(C)c1O | rule met
COc1cc(C)c2c(=O)c3c(O)cc(OC)cc3oc2c1 | rule not met
C=C1C(=O)OC(CCCCCCCCCCCCC)C1C(=O)O (racemic) [(+/-)-Protolichesterinic acid] | rule not met
Cc1cc(O)c(C=O)c2c1C(=O)Oc1c(CO)c(O)c3c(c1O2)C(O)OC3=O (stereo unspecified) | rule not met
COC(=O)c1c(C)cc(O)c(C=O)c1O [METHYL HAEMATOMMATE] | rule met
COC(=O)c1c(C)cc(O)c(C)c1O | rule not met
COc1cc(C)c(C(=O)Oc2cc(C)c(C(=O)O)c(O)c2C)c(O)c1C=O | rule not met
COc1cc(C)c(C(=O)O)c(O)c1C | rule met
CCOC(=O)c1c(C)cc(O)c(C=O)c1O [ETHYL HEMATOMMATE] | rule not met
